Test system: CCRIS mutagenicity, Ames/micronucleus/aberration tests
ASSAY NOTES: CCRIS mutagenicity studies
CONDITIONS USED: Test System: AMES SALMONELLA TYPHIMURIUM; Strain/Indicator: TA100; Metabolic Activation: RAT LIVER S-9, PHENOBARBITAL AND BETA-NAPHTHOFLAVONE; Method: PREINCUBATION
Active and inactive are the calls of the source. How the calls were made is not given here.
PROPERTY LABEL: mutagenic call

[[record]]
smiles_str = "NCCNCCN"
property_label = "mutagenic call"
recorded_result = "inactive; negative"

[[record]]
smiles_str = "O.O.O.O.O.O.O=[N+]([O-])O.O=[N+]([O-])O.[Zn]"
property_label = "mutagenic call"
recorded_result = "inactive; negative"

[[record]]
smiles_str = "Cc1ccc(N)c(S(=O)(=O)O)c1"
property_label = "mutagenic call"
recorded_result = "inactive; negative"


###

System: CCRIS mutagenicity, Ames/micronucleus/aberration tests
ASSAY NOTES: CCRIS mutagenicity studies
CONDITIONS USED: Test System: AMES SALMONELLA TYPHIMURIUM; Strain/Indicator: TA98; Metabolic Activation: NONE; Method: STANDARD PLATE
Active and inactive are the calls of the source. How the calls were made is not given here.
Outcomes: active, inactive

[[record]]
compound = "O=NO"
classification = "inactive"

[[record]]
compound = "CNC(=O)Oc1cccc2c1OC(C)(C)C2"
classification = "inactive"

[[record]]
compound = "CCc1ccc(NC(=O)c2csc([N+](=O)[O-])c2)cc1"
classification = "active"

[[record]]
compound = "CC(C)NCC1CCc2cc(CO)c([N+](=O)[O-])cc2N1 (centres undefined)"
classification = "active"

[[record]]
compound = "CC1CCC(C(C)C)C(=O)C1 (centres undefined)"
classification = "inactive"

[[record]]
compound = "Cc1ccc(N=CN(C)C=Nc2ccc(C)cc2C)c(C)c1"
classification = "inactive"

[[record]]
compound = "O=C(O)CCC(=O)N(O)c1ccc(Cl)cc1"
classification = "inactive"

[[record]]
compound = "C1CCC2CCCCC2C1 (centres undefined)"
classification = "inactive"

[[record]]
compound = "Clc1ccc(-c2nc3ccccc3o2)cc1"
classification = "inactive"

[[record]]
compound = "c1cc2ccc3cc4ccoc4c4ccc(c1)c2c34"
classification = "inactive"

[[record]]
compound = "O=C1CCC(=O)N1c1ccc(Cl)c(Cl)c1"
classification = "inactive"

[[record]]
compound = "N=c1ccc2nc3ccc(N)cc3sc-2c1"
classification = "active"

[[record]]
compound = "CCCCc1c(N)ccc2ccccc12"
classification = "inactive"

[[record]]
compound = "CC(C)CC(=O)OCc1cocc2c(C=O)ccc1-2"
classification = "active"


###

System: CCRIS mutagenicity, Ames/micronucleus/aberration tests
ASSAY NOTES: CCRIS mutagenicity studies
CONDITIONS USED: Test System: AMES SALMONELLA TYPHIMURIUM; Strain/Indicator: TA1535; Metabolic Activation: RAT, LIVER, S-9, AROCLOR 1254; Method: PREINCUBATION
Activity calls are given as the source filed them. The rule behind the calls is not given here.
Outcomes: y = active, n = inactive

[[record]]
compound = "C=CC(=O)NC(C)(C)CC(C)=O"
classification = "n"

[[record]]
compound = "NC(=O)CCCCC(N)=O"
classification = "n"

[[record]]
compound = "COc1cc2c(cc1OC)CN(N=O)CC2"
classification = "y"

[[record]]
compound = "CC1(C)S[C@@H]2[C@H](NC(=O)[C@H](N)c3ccccc3)C(=O)N2[C@H]1C(=O)O"
classification = "n"

[[record]]
compound = "Oc1cc(Cl)ccc1Cl"
classification = "n"

[[record]]
compound = "C1CC2OC2CC1C1CO1 (stereo unspecified)"
classification = "y"

[[record]]
compound = "O=[N+]([O-])c1cc([As](=O)(O)O)ccc1O"
classification = "n"

[[record]]
compound = "CC(O)CO (stereo unspecified)"
classification = "n"

[[record]]
compound = "Clc1ccccc1"
classification = "n"

[[record]]
compound = "Nc1ccc(-c2ccc(N)c(Cl)c2)cc1Cl"
classification = "n"

[[record]]
compound = "CCCC(=O)O[C@H]1[C@H](C)O[C@@H](O[C@H]2[C@H](N(C)C)[C@@H](O)[C@H](O[C@H]3[C@@H](CC=O)C[C@@H](C)[C@@H](O)/C=C/C=C/C[C@@H](C)OC(=O)C[C@@H](O)[C@@H]3OC)O[C@@H]2C)C[C@@]1(C)OC(=O)CC"
classification = "n"

[[record]]
compound = "CC[C@H]1OC(=O)[C@H](C)[C@@H](O[C@H]2C[C@@](C)(OC)[C@@H](O)[C@H](C)O2)[C@H](C)[C@@H](O[C@@H]2O[C@H](C)C[C@H](N(C)C)[C@H]2O)[C@](C)(O)C[C@@H](C)C(=O)[C@H](C)[C@@H](O)[C@]1(C)O"
classification = "n"

[[record]]
compound = "Fc1c(F)c(Cl)c(F)c(Cl)c1F"
classification = "n"

[[record]]
compound = "O=C/C(Br)=C/c1ccccc1"
classification = "n"

[[record]]
compound = "CN(C)N=O"
classification = "y"

[[record]]
compound = "O=C1c2ccccc2C(=O)c2c1cc(O)c(CO)c2O"
classification = "n"

[[record]]
compound = "C=CC=O"
classification = "n"

[[record]]
compound = "CCN(CC)c1ccc2c(C)cc(=O)oc2c1"
classification = "n"

[[record]]
compound = "C[Si](Cl)Cl"
classification = "n"

[[record]]
compound = "CC(=O)[CH-]C(=O)c1ccccc1.CC(=O)[CH-]C(=O)c1ccccc1.CC[O-].CC[O-].[Ti+4]"
classification = "n"

[[record]]
compound = "Oc1ccc(Cl)cc1Cl"
classification = "n"

[[record]]
compound = "C#C[C@]1(O)CC[C@H]2[C@@H]3CCC4=CC(=O)CC[C@@H]4[C@H]3CC[C@@]21C"
classification = "n"

[[record]]
compound = "COc1ccc(O)cc1"
classification = "n"

[[record]]
compound = "CN[C@@H]1[C@H](O[C@H]2[C@H](O[C@H]3[C@H](O)[C@@H](O)[C@H](N=C(N)N)[C@@H](O)[C@@H]3N=C(N)N)O[C@@H](C)[C@]2(O)C=O)O[C@@H](CO)[C@H](O)[C@H]1O"
classification = "n"

[[record]]
compound = "O=NN1CCCCC1"
classification = "y"

[[record]]
compound = "O=[N+]([O-])c1cccc(Cl)c1Cl"
classification = "n"

[[record]]
compound = "O=NO"
classification = "y"

[[record]]
compound = "C1O[C@@H]1[C@@H]1CO1"
classification = "y"

[[record]]
compound = "CC(=O)OCC(O)CO (stereo unspecified)"
classification = "y"

[[record]]
compound = "CNNC"
classification = "n"

[[record]]
compound = "CC(=O)OC(C)(C)C"
classification = "n"

